- system: T1, Recombinant Human BDCA2 (human, UniProt Q8WTT0 45-213, limits assumed)
- T1 construct: also called hBDCA2 (SPR analyte); human BDCA2 antigen
- T1 sequence (looked up): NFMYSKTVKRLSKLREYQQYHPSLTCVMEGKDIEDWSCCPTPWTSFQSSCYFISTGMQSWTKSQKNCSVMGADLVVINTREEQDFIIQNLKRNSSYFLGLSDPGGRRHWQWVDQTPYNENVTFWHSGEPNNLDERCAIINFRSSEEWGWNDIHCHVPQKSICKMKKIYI
- method_notes: SPR (BIAcore), antibody captured by anti-human IgG (Fc), hBDCA2 as analyte, 1:1 model
Recorded measurements of pKd, one per entry
Note: pKd values are expressed as the negative base-10 logarithm of concentration in M.

mab033c (antibody, V domains shown) VH: EVQMVESGGDLVKPGDSLKLSCAASGFTFRSYGMSWVRQTPDKRLEWVATISSGDSYTYYPDSVKGRFTISRDNAKNTLYLQMSSLKSEDTALYYCARQIYYDYAYYFDFWGQGTTLTVSS VL: DIVLTQSPASLAVSLGQRATISCRASESVSFRTSHLMHWYQQKPGQPPKLLIYGASNLESGVPARFSGSGSETDFTLNIHPVEEEDAAAYFCQQSIEDPPTFGGGTKLEIK; 9.96
Hu033-13 (antibody, IgG1, V domains shown, Humanized IgG1; also called Hu033-13(BM4)) VH: EVQLVESGGGLVKPGGSLRLSCAASGFTFRSYGMSWVRQAPGKRLEWVSTISSGDSYTYYPDSVKGRFTISRDNAKNSLYLQMNSLRAEDTAVYYCARQIYYDYAYYFDFWGQGTTVTVSS VL: DIVLTQSPDSLAVSLGERATINCRASESVSFRTSHLMHWYQQKPGQPPKLLIYGASNLESGVPDRFSGSGSGTDFTLTISSLQAEDVAVYFCQQSIEDPPTFGGGTKVEIK; 9.47
Hu033-12 (antibody, IgG1, V domains shown, Humanized IgG1; also called Hu033-12(BM2)) VH: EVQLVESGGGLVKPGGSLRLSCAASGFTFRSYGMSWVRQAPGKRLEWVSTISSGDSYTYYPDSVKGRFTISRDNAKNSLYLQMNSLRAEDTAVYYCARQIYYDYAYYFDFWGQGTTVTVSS VL: DIVMTQSPDSLAVSLGERATINCRASESVSFRTSHLMHWYQQKPGQPPKLLIYGASNLESGVPDRFSGSGSGTDFTLTISSLQAEDVAVYYCQQSIEDPPTFGGGTKVEIK; 9.55
Hu033-08 (antibody, IgG1, V domains shown, Humanized IgG1; also called Hu033-08(BM2)) VH: EVQLVESGGGLVKPGGSLRLSCAASGFTFSSYGMSWVRQAPGKGLEWVSTISSGDSYTYYPDSVKGRFTISRDNAKNSLYLQMNSLRAEDTAVYYCARQIYYDYAYYFDFWGQGTTVTVSS VL: EIVLTQSPATLSLSPGERATLSCRASESVSFRTSHLMHWYQQKPGQAPRLLIYGASNLESGIPARFSGSGSETDFTLTISRLEPEDFAVYFCQQSIEDPPTFGGGTKVEIK; 9.64
Hu033-06 (antibody, IgG1, V domains shown, Humanized IgG1; also called Hu033-06(BM3)) VH: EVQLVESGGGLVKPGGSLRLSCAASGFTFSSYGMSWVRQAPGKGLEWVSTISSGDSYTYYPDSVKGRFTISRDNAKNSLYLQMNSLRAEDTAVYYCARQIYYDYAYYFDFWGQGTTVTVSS VL: DIVLTQSPDSLAVSLGERATINCRASESVSFRTSHLMHWYQQKPGQPPKLLIYGASNLESGVPDRFSGSGSETDFTLTISPLQAEDVAVYFCQQSIEDPPTFGGGTKVEIK; 9.77
Hu033-16 (antibody, IgG1, V domains shown, Humanized IgG1; also called Hu033-16(BM4)) VH: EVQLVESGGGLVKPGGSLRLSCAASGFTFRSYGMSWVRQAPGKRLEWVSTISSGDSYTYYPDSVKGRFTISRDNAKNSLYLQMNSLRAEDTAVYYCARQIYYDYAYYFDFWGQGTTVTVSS VL: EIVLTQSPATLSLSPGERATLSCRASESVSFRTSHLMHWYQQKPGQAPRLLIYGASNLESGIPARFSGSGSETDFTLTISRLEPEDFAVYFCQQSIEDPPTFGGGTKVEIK; 9.72
Hu033-02 (antibody, IgG1, V domains shown, Humanized IgG1; also called Hu033-02(BM2)) VH: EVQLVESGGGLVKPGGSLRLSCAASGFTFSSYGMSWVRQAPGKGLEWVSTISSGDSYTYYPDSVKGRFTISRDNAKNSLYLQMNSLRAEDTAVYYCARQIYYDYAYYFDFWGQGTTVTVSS VL: DIVLTQSPASLAVSPGQRATITCRASESVSFRTSHLMHWYQQKPGQPPKLLIYGASNLESGVPARFSGSGSETDFTLTINPVEAEDTANYYCQQSIEDPPTFGGGTKVEIK; 9.62
BIIB059 (antibody, V domains shown) VH: DVQLVESGGGLVKPGGSLRLSCAASGFTFSTYTMSWVRQAPGKGLEWVATISPGDSFGYYYPDSVQGRFTISRDNAKNSLYLQMNSLRAEDTAVYYCTRDIYYNYGAWFAYWGQGTLVTVSS VL: DIQLTQSPSSLSASVGDRVTITCKASQSVDYDGDSYMNWYQQKPGKAPKLLIYAASTLESGVPSRFSGSGSGTDFTLTISSLQPEDFATYYCQQANEDPRTFGQGTKVEIKR; 8.97
Hu033-04 (antibody, IgG1, V domains shown, Humanized IgG1; also called Hu033-04(BM0)) VH: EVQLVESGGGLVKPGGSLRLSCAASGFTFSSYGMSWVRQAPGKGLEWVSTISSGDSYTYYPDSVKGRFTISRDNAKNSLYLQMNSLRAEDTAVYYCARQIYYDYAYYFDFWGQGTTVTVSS VL: DIVMTQSPDSLAVSLGERATINCRASESVSFRTSHLMHWYQQKPGQPPKLLIYGASNLESGVPDRFSGSGSGTDFTLTISSLQAEDVAVYYCQQSIEDPPTFGGGTKVEIK; 9.49
Hu033-23 (antibody, IgG1, V domains shown, Humanized IgG1; also called Hu033-23(BM3)) VH: EVQLVESGGGLVKPGGSLRLSCAASGFTFRSYGMSWVRQAPGKRLEWVSTISSGDSYTYYPDSVKGRFTISRDNAKNSLYLQMNSLKAEDTAVYYCARQIYYDYAYYFDFWGQGTTVTVSS VL: EIVLTQSPATLSLSPGERATLSCRASESVSFRTSHLMHWYQQKPGQAPRLLIYGASNLESGIPARFSGSGSGTDFTLTISRLEPEDFAVYYCQQSIEDPPTFGGGTKVEIK; 9.35

// next item, pKd requested
Ask: For the binder shown here, Hu033-15 (antibody, IgG1, V domains shown, Humanized IgG1; also called Hu033-15(BM2)) VH: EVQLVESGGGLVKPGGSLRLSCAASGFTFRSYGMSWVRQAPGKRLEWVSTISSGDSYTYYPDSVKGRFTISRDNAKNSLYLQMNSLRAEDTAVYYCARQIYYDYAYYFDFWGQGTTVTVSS VL: EIVLTQSPATLSLSPGERATLSCRASESVSFRTSHLMHWYQQKPGQAPRLLIYGASNLESGIPARFSGSGSGTDFTLTISRLEPEDFAVYYCQQSIEDPPTFGGGTKVEIK , give the reported pKd.
Result: 9.33
